target: Induced myeloid leukemia cell differentiation protein Mcl-1 (Homo sapiens, UniProt Q07820); experiment: modulators of Bim peptide binding to Mcl-1, dose response, biochemical, bead-based flow cytometry, multiplexed, human (AID 1329)
Sequence (Q07820 whole entry): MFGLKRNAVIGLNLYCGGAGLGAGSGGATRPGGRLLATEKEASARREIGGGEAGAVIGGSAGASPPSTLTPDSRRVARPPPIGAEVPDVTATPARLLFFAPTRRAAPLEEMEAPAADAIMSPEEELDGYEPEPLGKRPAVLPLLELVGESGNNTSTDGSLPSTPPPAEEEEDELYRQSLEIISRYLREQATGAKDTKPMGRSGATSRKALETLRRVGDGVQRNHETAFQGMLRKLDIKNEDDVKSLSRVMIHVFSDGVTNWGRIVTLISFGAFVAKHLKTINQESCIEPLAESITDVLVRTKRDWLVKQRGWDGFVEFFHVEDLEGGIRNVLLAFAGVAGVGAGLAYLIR

- Compound: "COc1cc(C=NNC(=O)CN(Cc2ccco2)S(=O)(=O)c2ccccc2)ccc1O"
  Endpoint Unit: "µM"
  EC50: 11.4
- Compound: "Cc1nnc2ccc(-c3cccc(NC(=O)c4ccco4)c3)nn12 [SMR000324305]"
  Endpoint Unit: "µM"
  EC50: 5.76
- Compound: "COc1cccc2c(SCC(=O)NN=Cc3ccc(O)cc3O)cc(C)nc12"
  Endpoint Unit: "µM"
  EC50: 29
- Compound: "Nc1c(C(=O)NCC2CCCO2)sc2nc3c(c(-c4ccco4)c12)CC/C3=C\\c1ccco1 (configuration not stated) [SMR000259502]"
  Endpoint Unit: "µM"
  EC50: 6
- Compound: "Cc1ccc(-c2nc(N3CCOCC3)s[n+]2-c2ccccc2)cc1 [SMR000225370]"
  Endpoint Unit: "µM"
  EC50: 2.04
- Compound: "COc1cc(CN=Nc2nn3cnnc3c3ccccc23)ccc1O"
  Endpoint Unit: "µM"
  EC50: 5.05
- Compound: "Cc1nc2ncccn2c1-c1csc(Nc2ccc(O)cc2)n1"
  Endpoint Unit: "µM"
  EC50: 0.39
- Compound: "CCN1/C(=C/C(C)=C/c2sc3ccccc3[n+]2CC)Sc2ccccc21 [SMR000354813]"
  Endpoint Unit: "µM"
  EC50: 41.2
- Compound: "Nc1c(C(=O)NC2CC2)sc2nc3c(c(-c4ccco4)c12)CC/C3=C/c1ccco1 [SMR000259554]"
  Endpoint Unit: "µM"
  EC50: 5.86
- Compound: "c1ccc(-c2nc(N3CCOCC3)[s+]n2-c2ccccc2)cc1"
  Endpoint Unit: "µM"
  EC50: 9.74
- Compound: "CCC(/C=C1\\Sc2ccc(OC)cc2N1CCO)=C\\c1sc2ccc(OC)cc2[n+]1CCO"
  Endpoint Unit: "µM"
  EC50: 19.3
- Compound: "CN1CCc2cccc3c2[C@@H]1Cc1ccc(O)c(O)c1-3"
  Endpoint Unit: "µM"
  EC50: 38.6
